# Target or system: recombinant human ClC-2 Chloride Channels (Homo sapiens, UniProt P51788)
# Construct: His; T7; expressed in transfected cells; host or cells: HEK-293 (ATCC), pcDNA3.1, G-418 selected
# Sequence (P51788 whole entry): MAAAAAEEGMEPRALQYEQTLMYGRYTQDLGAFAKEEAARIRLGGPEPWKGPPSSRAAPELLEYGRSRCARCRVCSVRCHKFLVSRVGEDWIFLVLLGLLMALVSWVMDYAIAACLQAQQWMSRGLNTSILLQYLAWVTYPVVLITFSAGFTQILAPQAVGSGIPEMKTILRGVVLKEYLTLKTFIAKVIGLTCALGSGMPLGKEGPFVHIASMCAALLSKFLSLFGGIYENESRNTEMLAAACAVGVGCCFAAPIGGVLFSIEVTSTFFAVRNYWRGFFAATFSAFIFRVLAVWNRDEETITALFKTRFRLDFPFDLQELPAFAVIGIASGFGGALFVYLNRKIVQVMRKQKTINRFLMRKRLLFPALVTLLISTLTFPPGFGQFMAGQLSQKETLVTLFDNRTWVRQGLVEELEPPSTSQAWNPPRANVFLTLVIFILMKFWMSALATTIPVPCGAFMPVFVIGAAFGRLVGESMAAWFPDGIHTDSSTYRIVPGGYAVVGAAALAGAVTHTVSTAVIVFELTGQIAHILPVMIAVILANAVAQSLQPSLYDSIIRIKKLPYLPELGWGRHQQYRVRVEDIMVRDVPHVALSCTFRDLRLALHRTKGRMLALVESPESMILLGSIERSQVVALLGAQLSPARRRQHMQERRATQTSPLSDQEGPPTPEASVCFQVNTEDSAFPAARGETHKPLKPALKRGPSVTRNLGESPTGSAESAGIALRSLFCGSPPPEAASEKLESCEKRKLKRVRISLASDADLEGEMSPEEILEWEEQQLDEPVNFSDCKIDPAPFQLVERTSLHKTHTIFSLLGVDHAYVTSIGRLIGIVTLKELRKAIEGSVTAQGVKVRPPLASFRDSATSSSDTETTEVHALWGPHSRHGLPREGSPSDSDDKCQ
# Measurement notes: Whole cell patch clamp, ClC-2 transfected HEK cells, current increase (Test Example 4)
# Format: cell-based
# Condition set: 100 nM, change from control
Measure: Activation of ClC-2 channels ΔpA/pF (pA/pF)
Just the number in pA/pF, nothing appended.

Here is how some compounds turned out for Activation of ClC-2 channels ΔpA/pF.
CCCCC(F)(F)C1(O)CC[C@@H]2[C@@H](CCCCCCC(=O)NCC)[C@@H](O)C[C@H]2O1 (stereo partly shown) [Compound 9] = 38.2
CC[C@H](C)CC(F)(F)C(=O)CC[C@H]1[C@H](O)CC(=O)[C@@H]1CCCCCCC(=O)O [Compound 2] = 22.6
CCCCC(F)(F)C(O)CC[C@H]1[C@H](O)CC(=O)[C@@H]1CCCCCCC(=O)O (stereo partly shown) [Compound 8, 13,14-dihydro-16,16-difluoro-PGE1] = 24.6

Here's the next entry for you.
[Q] So what's the measured Activation of ClC-2 channels ΔpA/pF for this one? CCCCC(F)(F)[C@@]1(O)CC[C@H]2[C@@H](CC(=O)[C@@H]2CCCCCCC(=O)O)O1 [Compound 1]
[A] 39.8

Numbers sourced from patent US7253295B2.
